# Measurement Protocol: MRT (infinity) in Beagle dog at 1 mg/kg, iv
# Format: ADME, organism-based, Canis lupus familiaris
# Condition Notes: in vivo
# Lookup of reported MRT inf keyed by entry

[
  {
    "Smiles Str": "C[C@@H](C1CC1)N1Cc2cc(-c3ccn4nc(N)c(C(=O)N[C@H]5CC[C@@](C)(O)CC5)c4n3)cc(OC(F)F)c2C1=O",
    "MRT inf [h]": 5.92
  },
  {
    "Smiles Str": "C[C@@H](C1CC1)N1Cc2cc(-c3ccn4nc(N)c(C(=O)N[C@H]5CC[C@@](C)(O)CC5)c4n3)cc(OC(F)(F)F)c2C1=O",
    "MRT inf [h]": 3.85
  }
]

* * *

Quick reference for half-life among some compounds
# Measurement Protocol: Half life in Beagle dog at 1 mg/kg, iv
# Type: ADME, organism-based, Canis lupus familiaris
# Condition Notes: in vivo

[
  {
    "Smiles Str": "C[C@@H](C1CC1)N1Cc2cc(-c3ccn4nc(N)c(C(=O)N[C@H]5CC[C@@](C)(O)CC5)c4n3)cc(OC(F)(F)F)c2C1=O",
    "half-life": "3.5 h"
  },
  {
    "Smiles Str": "C[C@@H](C1CC1)N1Cc2cc(-c3ccn4nc(N)c(C(=O)N[C@H]5CC[C@@](C)(O)CC5)c4n3)cc(OC(F)F)c2C1=O",
    "half-life": "4.85 h"
  }
]

* * *

# Measurement Protocol: MRT (infinity) in cynomolgus monkey at 1 mg/kg, iv
# Type: ADME, organism-based, Macaca fascicularis
# Condition Notes: in vivo
Below, each of the molecules is paired with its reported MRT inf value.

[
  {
    "Smiles Str": "C[C@@H](C1CC1)N1Cc2cc(-c3ccn4nc(N)c(C(=O)N[C@H]5CC[C@@](C)(O)CC5)c4n3)cc(OC(F)(F)F)c2C1=O",
    "MRT inf / h": 3.58
  },
  {
    "Smiles Str": "C[C@@H](C1CC1)N1Cc2cc(-c3ccn4nc(N)c(C(=O)N[C@H]5CC[C@@](C)(O)CC5)c4n3)cc(OC(F)F)c2C1=O",
    "MRT inf / h": 3.41
  }
]

* * *

# Measured Target: Phosphatidylinositol 4,5-bisphosphate 3-kinase catalytic subunit delta isoform (Homo sapiens, UniProt O00329)
# Sequence (O00329 whole entry): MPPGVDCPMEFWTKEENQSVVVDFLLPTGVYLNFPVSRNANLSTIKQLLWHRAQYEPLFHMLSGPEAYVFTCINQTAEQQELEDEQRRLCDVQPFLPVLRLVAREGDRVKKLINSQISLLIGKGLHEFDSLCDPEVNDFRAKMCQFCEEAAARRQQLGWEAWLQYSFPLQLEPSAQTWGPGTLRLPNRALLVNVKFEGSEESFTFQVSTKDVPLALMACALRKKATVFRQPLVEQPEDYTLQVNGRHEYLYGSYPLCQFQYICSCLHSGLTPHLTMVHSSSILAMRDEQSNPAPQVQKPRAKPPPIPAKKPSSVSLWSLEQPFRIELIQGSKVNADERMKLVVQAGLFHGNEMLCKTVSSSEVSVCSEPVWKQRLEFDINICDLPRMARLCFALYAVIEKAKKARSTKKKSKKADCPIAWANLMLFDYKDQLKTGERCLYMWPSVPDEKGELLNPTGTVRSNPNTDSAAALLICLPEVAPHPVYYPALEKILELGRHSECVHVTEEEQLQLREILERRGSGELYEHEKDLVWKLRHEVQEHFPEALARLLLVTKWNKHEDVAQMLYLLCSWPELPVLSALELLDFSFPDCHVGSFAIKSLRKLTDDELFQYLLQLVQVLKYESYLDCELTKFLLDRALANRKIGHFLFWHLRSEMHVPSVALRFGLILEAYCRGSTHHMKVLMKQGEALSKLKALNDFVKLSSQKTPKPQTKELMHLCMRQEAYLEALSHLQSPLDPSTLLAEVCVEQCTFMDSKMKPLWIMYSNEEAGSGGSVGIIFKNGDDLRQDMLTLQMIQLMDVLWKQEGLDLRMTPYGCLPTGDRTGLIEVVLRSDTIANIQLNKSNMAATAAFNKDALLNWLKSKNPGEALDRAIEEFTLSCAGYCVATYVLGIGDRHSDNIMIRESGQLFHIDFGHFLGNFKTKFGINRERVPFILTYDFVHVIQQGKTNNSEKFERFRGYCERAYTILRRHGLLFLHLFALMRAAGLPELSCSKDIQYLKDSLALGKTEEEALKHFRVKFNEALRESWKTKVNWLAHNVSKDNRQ
# Measurement Protocol: Inhibition of PI3Kdelta (unknown origin) using PIP2 as substrate preincubated for 1 hr followed by substrate addition and measured after 60 mins in presence of ATP by ADP-glo assay
pIC50: −log10 of the molar value.
Response key: satisfied means pIC50 >= 6; not satisfied means pIC50 < 6.

[
  {
    "Smiles Str": "Cc1cc(-c2ccn3nc(N)c(C(=O)N[C@@H](CO)C4CC4)c3n2)cc2c1C(=O)N([C@@H](C)C1CC1)C2",
    "Cat": "not satisfied"
  },
  {
    "Smiles Str": "C[C@H](N1Cc2cc(-c3ccn4nc(N)c(C(=O)N[C@@H](CO)C5CC5)c4n3)cc(C3CC3)c2C1=O)C(F)(F)F",
    "Cat": "not satisfied"
  },
  {
    "Smiles Str": "Cc1cc(-c2ccn3nc(N)c(C(=O)NC4CC4)c3n2)cc2c1C(=O)N([C@@H](C1CC1)C(F)(F)F)C2",
    "Cat": "not satisfied"
  },
  {
    "Smiles Str": "CNS(=O)(=O)c1cc(-c2ccn3nc(N)c(C(=O)N[C@@H](CO)C4CC4)c3n2)cc2c1C(=O)N([C@@H](C)C(F)(F)F)C2",
    "Cat": "satisfied"
  },
  {
    "Smiles Str": "Cc1cc(-c2ccn3nc(N)c(C(=O)N[C@H]4CC[C@H](O)CC4)c3n2)cc2c1C(=O)N([C@@H](C)C1CC1)C2",
    "Cat": "satisfied"
  },
  {
    "Smiles Str": "CNS(=O)(=O)c1cc(-c2ccn3nc(N)c(C(=O)NC4CC4)c3n2)cc2c1C(=O)N([C@@H](C)C1CC1)C2",
    "Cat": "satisfied"
  },
  {
    "Smiles Str": "C[C@@H](C1CC1)N1Cc2cc(-c3ccn4nc(N)c(C(=O)N[C@H]5CC[C@@](C)(O)CC5)c4n3)cc(OC(F)(F)F)c2C1=O",
    "Cat": "not satisfied"
  },
  {
    "Smiles Str": "C[C@@H](C1CC1)N1Cc2cc(-c3ccn4nc(N)c(C(=O)NC5CC5)c4n3)cc(S(C)(=O)=O)c2C1=O",
    "Cat": "satisfied"
  },
  {
    "Smiles Str": "C[C@@H](C1CC1)N1Cc2cc(-c3ccn4nc(N)c(C(=O)NC5CC5)c4n3)cc(OC(F)(F)F)c2C1=O",
    "Cat": "not satisfied"
  },
  {
    "Smiles Str": "C[C@H](N1Cc2cc(-c3ccn4nc(N)c(C(=O)NC5CC5)c4n3)cc(NS(C)(=O)=O)c2C1=O)C(F)(F)F",
    "Cat": "satisfied"
  },
  {
    "Smiles Str": "C[C@H](N1Cc2cc(-c3ccn4nc(N)c(C(=O)N[C@@H](CO)C5CC5)c4n3)cc(OC(F)F)c2C1=O)C(F)(F)F",
    "Cat": "satisfied"
  }
]
